- SYSTEM_TESTED: UniProt:P51144
- Sequence (P51144 whole entry): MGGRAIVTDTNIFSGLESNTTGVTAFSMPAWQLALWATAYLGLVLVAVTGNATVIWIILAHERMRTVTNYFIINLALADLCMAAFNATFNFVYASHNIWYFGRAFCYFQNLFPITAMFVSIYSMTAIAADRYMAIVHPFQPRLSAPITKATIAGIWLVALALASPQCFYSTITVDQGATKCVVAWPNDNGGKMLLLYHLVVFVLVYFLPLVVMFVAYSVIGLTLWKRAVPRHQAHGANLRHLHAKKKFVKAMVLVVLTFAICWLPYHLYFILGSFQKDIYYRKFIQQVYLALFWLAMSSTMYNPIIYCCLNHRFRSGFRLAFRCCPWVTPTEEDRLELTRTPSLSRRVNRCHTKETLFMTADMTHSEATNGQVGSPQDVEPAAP
- TEST_NAME: Antagonist activity against Tachykinin receptor 2 was measured by Hamster isolated trachea(HT) assay.
- Format: functional, tissue-based
- SETTINGS: read-out: pA2 (converted)
We label by threshold. Values of Kb strictly beneath 1 µM are Fulfilled. Values of 1 µM and up are Not fulfilled.

Task: Would you kindly verify if Kb of CC(C)[C@H](NC(=O)[C@@H](Cc1c[nH]c2ccccc12)NC(=O)[C@H](CCCCN)NC(=O)[C@@H](N)CC(=O)O)C(=O)N[C@H](Cc1c[nH]c2ccccc12)C(=O)N[C@H](Cc1c[nH]c2ccccc12)C(=O)N[C@@H](CCCCN)C(=O)O is strictly less than 1 µM?
Result: Not fulfilled

Task: Repeat for the following compound: CC(C)[C@H](NC(=O)[C@H](Cc1c[nH]c2ccccc12)NC(=O)[C@H](Cc1ccc(O)cc1)NC(=O)[C@@H](N)CC(=O)O)C(=O)N[C@H](Cc1c[nH]c2ccccc12)C(=O)N[C@H](Cc1c[nH]c2ccccc12)C(=O)N[C@@H](CCCN=C(N)N)C(=O)O
Result: Not fulfilled

Task: Repeat for the following compound: CC(C)[C@H](NC(=O)[C@@H](Cc1c[nH]c2ccccc12)NC(=O)[C@H](Cc1c[nH]c2ccccc12)NC(=O)[C@@H](N)CC(=O)O)C(=O)N[C@H](Cc1c[nH]c2ccccc12)C(=O)N[C@H](Cc1c[nH]c2ccccc12)C(=O)N[C@@H](CCCN=C(N)N)C(=O)O
Result: Not fulfilled

Task: Repeat for the following compound: CC(C)[C@H](NC(=O)[C@@H](Cc1c[nH]c2ccccc12)NC(=O)[C@H](Cc1ccc(O)cc1)NC(=O)[C@@H](N)CC(=O)O)C(=O)N[C@H](Cc1c[nH]c2ccccc12)C(=O)N[C@H](Cc1c[nH]c2ccccc12)C(=O)NCC(=O)O
Result: Fulfilled

Task: Repeat for the following compound: CC(C)C[C@H](NC(=O)[C@@H](Cc1c[nH]c2ccccc12)NC(=O)[C@@H](Cc1c[nH]c2ccccc12)NC(=O)[C@@H](NC(=O)[C@@H](Cc1c[nH]c2ccccc12)NC(=O)[C@H](Cc1ccc(O)cc1)NC(=O)[C@@H](N)CC(=O)O)C(C)C)C(=O)O
Result: Not fulfilled

Task: Repeat for the following compound: CC(C)[C@H](NC(=O)[C@@H](Cc1c[nH]c2ccccc12)NC(=O)[C@@H](Cc1c[nH]c2ccccc12)NC(=O)[C@@H](N)CC(=O)O)C(=O)N[C@H](Cc1c[nH]c2ccccc12)C(=O)N[C@H](Cc1c[nH]c2ccccc12)C(=O)N[C@@H](CCCN=C(N)N)C(=O)O
Result: Not fulfilled

Task: Repeat for the following compound: CC(C)C[C@H](NC(=O)[C@@H](Cc1c[nH]c2ccccc12)NC(=O)[C@@H](NC(=O)[C@@H](Cc1c[nH]c2ccccc12)NC(=O)[C@H](Cc1ccc(O)cc1)NC(=O)[C@@H](N)CC(=O)O)C(C)C)C(=O)N[C@@H](CCCN=C(N)N)C(=O)O
Result: Fulfilled

Task: Repeat for the following compound: CSCC[C@H](NC(=O)[C@@H](Cc1c[nH]c2ccccc12)NC(=O)[C@@H](Cc1c[nH]c2ccccc12)NC(=O)[C@@H](NC(=O)[C@@H](Cc1c[nH]c2ccccc12)NC(=O)[C@H](Cc1ccc(O)cc1)NC(=O)[C@@H](N)CC(=O)O)C(C)C)C(=O)O
Result: Not fulfilled
